Reference source for all entries: PubChem BioAssay AID1578

Known inhibition of a selection of compounds
- Test summary: NOD1 signaling inhibitors, primary screen, cell-based, luminescence, uHTS (AID 1578);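 note: HEK-293T reporter cells stimulated with the NOD1 agonist gamma-tri-DAP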
- Test settings: NOD1-driven NF-kB luciferase reporter cells, at 4 µM, stronger effect = higher value
The campaign covered roughly 290,000 compounds. About 3,000 (1%) were called active. The full list was thinned out, with actives kept by preference.
Your answer is read as %, so omit the unit and give the number.

Reference set (3 entries):
{"columns": ["Compound", "inhibition (%)"],
 "data": [
  ["CCN1C(=O)c2cccc3c(S(=O)(=O)NCc4ccco4)ccc1c23", -23],
  ["Nc1ccc(-c2nc3ccc(C(=O)O)cc3s2)cc1", 89.8],
  ["Cc1ccc(NC(=O)CCc2nnc3ccc(N4CCC(C)CC4)nn23)nc1", -3.1]
]}

Lab book: inhibition of CN1C(CC(=O)Nc2ccc(Cl)cc2Cl)c2ccccc2CC1(C)C (stereo unspecified) noted as 2.4

Per the records, this compound ( CCOc1ccc(C(=O)Nn2cnnc2)cc1OCC ) has inhibition equal to -0.7

Summary for this compound, CN1C(=O)C(c2nnc(Nc3cccc4ccccc34)s2)C2CC1(C)Oc1ccccc12 (stereo unspecified) : inhibition is 3.3

* * *

- Test summary: NOD1 signaling inhibitors, primary screen, cell-based, luminescence, uHTS (AID 1578);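 note: HEK-293T reporter cells stimulated with the NOD1 agonist gamma-tri-DAP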
- Test settings: NOD1-driven NF-kB luciferase reporter cells, at 4 µM, stronger effect = higher value
Out of some 290,000 compounds screened, about 3,000 (1%) were called active. Many of the other results were omitted from the sample, so actives are more common in it than they were.
Mark NOT MET for inhibition values under -30%, and MET for everything at or above.

{"columns": ["Compound", "Label"],
 "data": [
  ["O=C(N/N=C/c1c(O)n(Cc2ccccc2)c(=O)c2ccccc12)c1cccnc1", "MET"],
  ["COc1cc(Br)c(CN2CCCN(C)CC2)cc1OC", "MET"],
  ["Cc1ccc(C(C(=O)NC2CCCCC2)N(Cc2ccccc2)C(=O)Cc2c[nH]c3ccccc23)o1 (configuration not stated)", "MET"],
  ["O=C(NCCc1ccccc1)c1cc2ncc(Br)cn2n1", "MET"],
  ["COn1c(-c2ccccc2)nc2ccc(Cl)cc21", "NOT MET"]
]}

Query :: Threshold query (inhibition >= -30%) on Cc1ccc(CNC(=O)CNS(=O)(=O)c2cccc3nsnc23)cc1
Result :: MET

Query :: Reported inhibition at or above -30%? CCOc1ccc(Cl)cc1CNCCCSc1ncccn1
Result :: MET

Query :: Reported inhibition reaches at least -30% for Cn1c(/C(C#N)=C(\O)c2ccc(Cl)s2)nc2ccccc21 ?
Result :: MET

Query :: Assess whether reported inhibition for COc1nc(Nc2ccccc2F)nc(OC)n1 sits at -30% or higher.
Result :: MET

Query :: Confirm if inhibition reported for the compound Cn1c(CNC(=O)CCNC(=O)c2cccc(F)c2)cc(=O)n(C)c1=O is -30% or above.
Result :: MET

Query :: Assess whether reported inhibition for Cc1cccc(NC(=S)NNC(=S)NC2CCCCC2)c1C sits at -30% or higher.
Result :: MET

Query :: Given Cc1oc(-c2ccccc2)cc1C(=O)NC(Cc1c[nH]c2ccccc12)C(=O)O (configuration not stated) , state whether its inhibition is at least -30%.
Result :: NOT MET

Query :: Is inhibition for COC(=O)c1ccc(C(=O)OC)c(NC2=NS(=O)(=O)c3ccccc32)c1 at or above -30%?
Result :: MET

Query :: For this compound, is measured inhibition -30% or higher? C=CCOc1c(CNc2ccc(C(=O)O)cc2)cccc1OC
Result :: MET

Query :: Has O=C(CCNS(=O)(=O)/C=C/c1ccccc1)NCCc1c[nH]c2ccccc12 a recorded inhibition greater than or equal to -30%?
Result :: MET

Query :: # bool: inhibition of Cc1ccc(CC(=O)NCc2ccc(Cl)cc2)cc1 >= -30%
Result :: NOT MET

Query :: Please check the record CCOc1ccc(OCC)c(S(=O)(=O)NCc2cccnc2)c1 and state if its inhibition is at or above -30%.
Result :: MET

* * *

- Test summary: NOD1 signaling inhibitors, primary screen, cell-based, luminescence, uHTS (AID 1578);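 note: HEK-293T reporter cells stimulated with the NOD1 agonist gamma-tri-DAP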
- Test settings: NOD1-driven NF-kB luciferase reporter cells, at 4 µM
Among all 290,000 compounds or so, about 3,000 (1%) were called active. Rule as the data show it: active = inhibition mostly above about 36% (no sharp cut-off); inactive = mostly below about 34%. Only a selection was taken, and actives are over-represented in it overall.
Respond using exactly one of the listed classes: active, inactive

{"columns": ["Compound", "Label"],
 "data": [
  ["CCOC(=O)N1CCC(N(CCN(C)C)C(=S)Nc2cc(Cl)cc(Cl)c2)CC1", "active"]
]}

Query :: Write down the call the test reported for this compound. Item: CC(C)(C)C1=NN(c2ccc([N+](=O)[O-])cc2)C(c2ccccc2)C1 (stereo not given)
Result :: inactive

Query :: What did this assay record as the result for CCOc1cccc2sc(N(CCN(C)C)C(=O)CCS(=O)(=O)c3ccccc3)nc12 ?
Result :: inactive

Query :: Kindly provide the recorded test outcome for the following compound: CCN(CC)C(=O)C[n+]1cccc(/C=N/O)c1
Result :: inactive

Query :: Identify the outcome logged in this assay for the compound shown: O=C(c1ccc(Cl)c(S(=O)(=O)N2CCCCCC2)c1)N1CCCC1
Result :: inactive

Query :: How was Cc1cc(C)cc(NC2=C(N)C(=O)c3ccccc3C2=O)c1 classified in this test?
Result :: inactive

Query :: So what was the verdict on O=C(NCc1cccnc1)/C(=C/c1ccc(-c2cccc(C(F)(F)F)c2)o1)NC(=O)c1ccccc1 in this test?
Result :: inactive

Query :: What call does the record list for O=C(c1ccc(N2CCCC2=O)cc1)N1CCN(c2ccc(Cl)cc2)CC1 ?
Result :: inactive

Query :: Name the outcome recorded for Cc1ccc(C(=O)N2CCN3C(=O)c4ccccc4C23c2ccc(Cl)cc2)cc1 (stereo not given) in the assay.
Result :: inactive

* * *

- Test summary: NOD1 signaling inhibitors, primary screen, cell-based, luminescence, uHTS (AID 1578);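 note: HEK-293T reporter cells stimulated with the NOD1 agonist gamma-tri-DAP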
- Test settings: NOD1-driven NF-kB luciferase reporter cells, at 4 µM, stronger effect = higher value
About 3,000 (1%) of roughly 290,000 compounds were called active. This is one part of a sample in which actives are shown more often than they occur.
Measured metric: inhibition (%)
Provide only the numeric value, understood in %.

Look over these answered cases.
{"columns": ["Compound", "Unit annotation", "inhibition"],
 "data": [
  ["Cc1ccc(C(c2nnnn2CS(=O)(=O)c2ccc(C)cc2)N2CCN(c3ncccn3)CC2)cc1 (stereo not drawn)", "%", -41.2],
  ["CCn1cc(C(=O)OCC(=O)c2cc(C)n(-c3ccccc3)c2C)c(=O)c2ccc(C)nc21", "%", 6.2]
]}

Attention now turns to another entry.
What the record says about COc1ccc(CNS(=O)(=O)c2ccc(OC)cc2)cc1 : inhibition is -1.2

* * *

- Test summary: NOD1 signaling inhibitors, primary screen, cell-based, luminescence, uHTS (AID 1578);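 note: HEK-293T reporter cells stimulated with the NOD1 agonist gamma-tri-DAP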
- Test settings: NOD1-driven NF-kB luciferase reporter cells, at 4 µM, stronger effect = higher value
Among all 290,000 compounds or so, about 3,000 (1%) were called active. The sample as a whole holds a higher share of actives than the screen did.
Measured metric: inhibition (%)
Express your answer in %, writing the number without its unit.

Reference set, count: 2
{"columns": ["Compound", "Unit annotation", "inhibition"],
 "data": [
  ["Cn1nnc(NC(=O)c2ccc([N+](=O)[O-])cc2Cl)n1", "%", 11.3],
  ["COc1ccc(/C(N)=N/OC(=O)CC2CCCCC2)cc1OC", "%", -10.9]
]}

Form: compound = Cc1cc(/C=c2/sc3nc4ccccc4n3c2=O)c(C)n1-c1ccccn1 ; inhibition = 74.4

So, COc1ccc(OC)c(S(=O)(=O)N2CCN3CCCC3C2)c1 (centres undefined) ? Its inhibition was -16.6

Form field inhibition, entry CCOC(=O)C1=C(C)NC(=O)NC1c1c(OC)ccc2ccccc12 (centres undefined) : -31.2

Lab book: inhibition of CCOC(=O)c1nnn(CC(=O)NC(=O)Nc2ccccc2)c1C(=O)OCC noted as -7.4

inhibition for O=c1/c(=C/c2ccccn2)sc2nc3ccccc3n12 is -98.1

* * *

- Test summary: NOD1 signaling inhibitors, primary screen, cell-based, luminescence, uHTS (AID 1578);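 note: HEK-293T reporter cells stimulated with the NOD1 agonist gamma-tri-DAP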
- Test settings: NOD1-driven NF-kB luciferase reporter cells, at 4 µM, stronger effect = higher value
In all, about 290,000 compounds went through this assay and about 3,000 (1%) were called active. The sample as a whole holds a higher share of actives than the screen did.
Measured metric: inhibition (%)
Lab book: enter the figure in %, no units written.

{"columns": ["Molecule", "inhibition (%)"],
 "data": [
  ["O=C(c1cccs1)N1CCC(C(=O)N2CCN(Cc3ccc4c(c3)OCO4)CC2)CC1", -24.9],
  ["Cc1ccccc1Cn1nc(C)c(NC(=O)/C=C/c2cnn(C)c2C)c1C", -19.1],
  ["C=CCNc1nc(Nc2ccc(OC)cc2)nc(OCC)n1", -7.5]
]}

Memo: O=C(N/N=C/c1cccc(OC(=O)c2cccc(Br)c2)c1)c1ccncc1 , reported inhibition: -35

// inhibition value for C[n+]1cn(/N=C/c2ccccc2)c2ccccc21 : 75.1

Reported inhibition of C/C(=N/NC(=O)c1nnn(-c2nonc2N)c1-c1ccccc1)c1ccncc1 : -26.6

Per the record, Cc1cccc(Cc2cnc(N3C(=N)SC(c4ccccc4)C3=O)s2)c1 (stereo not drawn) has inhibition of 95.5
